# Tested on: Candida duobushaemulonii AR 394
# Protocol description: MIC, YPD broth, CDC and FDA AR Candida isolate panel
# Assay type: cell-based
# Assay context: Table 9 top part: titrations from 1.56 to 100 μg/mL
Ends that are not written are not given here.
Property: MIC (μg/mL) Candida duobushaemulonii AR 394; scope: individual substances
Value expressed in µg/mL; do not type the unit.

Solved entries (count: 3):
1) TVGGLVKWILKTVKKFA-NH2 [STIP3-29, TVGGLVKWILKTVKKFA-NH2]: 100
2) TVKGLVKWILNVVKKFA-NH2 [STIP3-30, TVKGLVKWILNVVKKFA-NH2]: 25
3) TVKALVKWILKTVAKFA [STIP3-19, TVKALVKWILKTVAKFA]: 100

Now let's try a different one.
Asked: Would you mind telling me what MIC (μg/mL) Candida duobushaemulonii AR 394 value was observed for TVKGLVKWILNVVKKFA [STIP3-14, TVKGLVKWILNVVKKFA] ?
Given back: 100

---

# Tested on: S. aureus ATCC BAA-44 (MRSA SCCmec type I)
# Protocol description: MIC, broth dilution
# Format: cell-based, Staphylococcus aureus
# Assay context: Table 5; STIP3 variants, highest concentration 100 μg/mL
Ends that are not written are not given here.
Quick reference for MIC S. aureus ATCC BAA 44 (I) among some substances
// units = µg/mL; emit number, no label

Consider the reported MIC S. aureus ATCC BAA 44 (I) for these substances:
1) TVKGLVKWILNVVKKFA [STIP3-14, TVKGLVKWILNVVKKFA]: 25
2) TVKALVKWILKTVAKFW-NH2 [STIP3-31, TVKALVKWILKTVAKFW-NH2]: 25
3) TVRALVRWILRTVARFA [STIP3-23, TVRALVRWILRTVARFA]: 25
4) TVAGLVKWILATVKKFA [STIP3-15, TVAGLVKWILATVKKFA]: 25
5) TVGGLVKWILKTVKKFA-NH2 [STIP3-29, TVGGLVKWILKTVKKFA-NH2]: 6.25

Asked: Using the record for TVGGLVKWILAAVKKFA [STIP3-12, TVGGLVKWILAAVKKFA] , report its MIC S. aureus ATCC BAA 44 (I).
Given back: 25

---

# Tested on: Candida lusitaniae AR 398
# Protocol description: MIC, YPD broth, CDC and FDA AR Candida isolate panel
# Type: cell-based
# Assay context: Table 9 below the line: only 200 or 100 μg/mL tested; values reported as 100 are ≤100 μg/mL
Ends that are not written are not given here.
Measure name: MIC (μg/mL) Candida lusitaniae AR 398

1) TVKFLVKWILKWVAKFA [STIP3-25, TVKFLVKWILKWVAKFA]: ≤ 100 µg/mL
2) TVGGLVKWILKAVKKFA [STIP3-13, TVGGLVKWILKAVKKFA]: ≤ 100 µg/mL

--- query ---
Asked: So what's the measured MIC (μg/mL) Candida lusitaniae AR 398 for this one? TVGGLVKWILKTVKKFA [STIP3-3, TVGGLVKWILKTVKKFA]
Given back: ≤ 100 µg/mL

---

# Test system: Saccharomyces cerevisiae AR 400
# Protocol description: MIC, YPD broth, CDC and FDA AR Candida isolate panel
# Type: cell-based
# Assay context: Table 9 top part: titrations from 1.56 to 100 μg/mL
Ends that are not written are not given here.
Measure name: MIC (μg/mL) Saccharomyces cerevisiae AR 400 (µg/mL)
# number only, unit µg/mL dropped from output

Solved entries (count: 6):
1. TVGGLVKWILATVKKFA [STIP3-2, TVGGLVKWILATVKKFA]: 100
2. TVGGLVKWILDTVKKFA [STIP3-1, TVGGLVKWILDTVKKFA]: 12.5
3. TVKGLVKWILNVVKKFA [STIP3-14, TVKGLVKWILNVVKKFA]: 6.25
4. TVKALVKWILKTVAKFA [STIP3-19, TVKALVKWILKTVAKFA]: 50
5. TVGGLVKWILKTVKKFA-NH2 [STIP3-29, TVGGLVKWILKTVKKFA-NH2]: 25
6. TVKALVKWILKTVAKFW [STIP3-21, TVKALVKWILKTVAKFW]: 200

Shift focus to the following entry.
Asked: Recorded MIC (μg/mL) Saccharomyces cerevisiae AR 400 of TVKGLVKWILNVVKKFA-NH2 [STIP3-30, TVKGLVKWILNVVKKFA-NH2] , please.
Given back: 12.5
